Values were extracted from PubChem BioAssay (Tox21).

# method: qHTS RealTime-Glo MT Cell Viability Assay in HEK293 cells - 16 hour (AID 1224872); also: nearly all actives have a fitted effect of over 50% in size
# test-conditions: RealTime-Glo luminescence; series mostly up to 76.8 µM
Inconclusive results are not listed. The source made the active and inactive calls. Calls follow the shape of the dose curve; as a rule, active = well fitted cell-killing curve with a large enough effect in the repeat runs; inconclusive = weak or mixed curves, or effect the other way; inactive = flat fitted curve, though single readings scatter.
Outcome (select one): active, inactive

Some solved entries appear below for comparison.
> print(dat)
                         structure.notation  category
1                       CCCC(=O)OCCc1ccccc1  inactive
2                     CCCC[P+](C)(CCCC)CCCC  inactive
3              NC(=O)c1cccc([N+](=O)[O-])c1  inactive
4  COc1c(C)c2c(c(O)c1C/C=C(\C)CCC(=O)OCCN1CCOCC1)C(=O)OC2  inactive
5                                     ClCCl  inactive

Task item: What outcome does the record of this test show for `O=C(O)c1cc(O)c2ccccc2c1O` ?
Reply: active

Task item: Please state the recorded outcome for this compound: `O=C(/C=C/c1ccc(O)c(O)c1)O[C@@H](C(=O)O)[C@@H](OC(=O)/C=C/c1ccc(O)c(O)c1)C(=O)O`
Reply: inactive

Task item: How did this test come out for `O=C(O)Cc1ccccc1Nc1c(Cl)cccc1Cl` ?
Reply: inactive

Task item: Please share the test call associated with `CCOC(=O)Cn1cccc1-c1nc(-c2ccc(OC)cc2)c(-c2ccc(OC)cc2)s1` .
Reply: inactive

Task item: Per the assay record, what outcome was assigned to `CCN(CC)c1ccc2c(-c3ccc(S(=O)(=O)O)cc3S(=O)(=O)[O-])c3ccc(=[N+](CC)CC)cc-3oc2c1` ?
Reply: inactive

Task item: Call for entry `CC1(C)CCC[C@]2(C)[C@H]3CC(=O)O[C@]3(C)CC[C@@H]12` :
Reply: inactive

* * *

# method: qHTS assay to identify small molecule agonists of H2AX - cell viability counter screen (AID 1224847); also: nearly all actives have a fitted effect of over 30% in size
# test-conditions: CHO-K1 viability, CellTiter-Glo luminescence, 3 h; series mostly up to 154 µM
Inconclusive results are not listed. The source made the active and inactive calls. The call rests on the fitted dose curve.
The reply should be one of these categories: active, inactive

> print(dat)
                                   molecule  category
1             CCCCC/C=C\C/C=C\CCCCCCCC(=O)O  inactive
2                 CCCC(=O)OC(C)(C)Cc1ccccc1  inactive
3                       Oc1cc(Cl)cc(Cl)c1Cl    active
4                     CCCC[P+](C)(CCCC)CCCC  inactive
5  CCN(CC)c1ccc2c(-c3ccc(S(=O)(=O)O)cc3S(=O)(=O)[O-])c3ccc(=[N+](CC)CC)cc-3oc2c1    active
6  CCC(C)[O-].CCC(C)[O-].CCOC(=O)/C=C(/C)[O-].[Al+3]  inactive

Task item: Field: outcome | Entry: C=CCCC(=O)/C=C/C1C(C)=CCCC1(C)C (stereo not given)
Reply: active

Task item: What did the test return for `ClCCl` ?
Reply: inactive

Task item: Which result was noted for this molecule in the test: `Cc1nc2n(c(=O)c1CCN1CCC(c3noc4cc(F)ccc34)CC1)CCCC2`
Reply: inactive
